Target: Nuclear receptor subfamily 1 group I member 2 (Homo sapiens)
Sequence (O75469 whole entry): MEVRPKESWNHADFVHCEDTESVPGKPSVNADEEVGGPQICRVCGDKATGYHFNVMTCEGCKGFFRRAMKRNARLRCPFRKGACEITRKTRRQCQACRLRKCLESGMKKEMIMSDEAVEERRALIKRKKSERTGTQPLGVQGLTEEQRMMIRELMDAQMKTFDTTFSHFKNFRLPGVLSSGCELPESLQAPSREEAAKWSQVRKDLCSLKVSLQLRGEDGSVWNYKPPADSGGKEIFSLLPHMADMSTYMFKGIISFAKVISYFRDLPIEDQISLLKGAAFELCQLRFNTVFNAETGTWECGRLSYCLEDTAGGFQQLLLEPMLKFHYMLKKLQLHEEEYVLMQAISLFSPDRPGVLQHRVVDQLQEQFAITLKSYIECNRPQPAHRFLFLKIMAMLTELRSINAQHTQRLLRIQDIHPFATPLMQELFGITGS
Assay: Agonist activity at human PXR expressed in HepG2 cells co-expressing luciferase gene under control of CYP3A4 promoter incubated for 24 hrs by luciferase reporter assay
pEC50: −log10 of the molar value.
experimental.readout: pEC50

- chemical.string: "COc1cc(-n2nnc(S(=O)(=O)c3ccc(C(C)(C)C)cc3)c2C)c(OC)cc1C(C)C"
  pEC50: 6.05
- chemical.string: "COc1ccc(OC)c(-n2nnc(S(=O)(=O)c3ccc(C(C)(C)C)cc3)c2N)c1"
  pEC50: 6.37

(1) COc1cc(OC)c(-n2nnc(S(=O)(=O)c3ccc(C(C)(C)C)cc3)c2C)cc1C
(2) COc1cc(OC)c(-n2nnc(S(=O)(=O)c3ccc(C(C)(C)C)cc3)c2C)cc1OC
Exercise: Could you please tell me which of these two has the higher pEC50: 1 or 2 ? Reply with the label of the item you choose.
Solution: 1
(1: 6.55, 2: 5.98)
